# protocol.description: Volume of distribution at steady state in patient (6 patients) with hemodialysis-dependent end-stage renal disease at 1.2 +/- 0.4 g/m'2 administered as pulse therapy with 1 hr infusion followed by hemodialysis for 3 hrs started 7 hrs post dose measured during hemodialysis treatment by HPLC analysis
# condition.details: human, in vivo, iv, 1.2 g/m'2
metric: Vd (L/kg)
Answer with a number only, understood to be in L/kg.

Quick one: Vd for O=P1(N(CCCl)CCCl)NCCCO1 (stereo unspecified) [CYCLOPHOSPHAMIDE ANHYDROUS] ?
0.49

----------
# protocol.description: clinical
# condition.details: human, in vivo, iv, 1.1 g/m'2
# Description: Elimination half life in patient (6 patients) with severe renal insufficiency at 1.1 +/- 0.2 g/m'2 administered as pulse therapy with 1 hr infusion by HPLC analysis
metric: half-life at 1 h (h)
Express your answer in h, writing the number without its unit.

// half-life at 1 h lookup, key: O=P1(N(CCCl)CCCl)NCCCO1 (stereo unspecified) [CYCLOPHOSPHAMIDE ANHYDROUS]
7.3
